# EC50 per entry
# study.system: T1, human SLC34A2 (human, UniProt O95436 1-690)
# T1 construct: whole, on cells; also called human solute carrier 34 A2; NaPi2b
# T1 sequence (looked up): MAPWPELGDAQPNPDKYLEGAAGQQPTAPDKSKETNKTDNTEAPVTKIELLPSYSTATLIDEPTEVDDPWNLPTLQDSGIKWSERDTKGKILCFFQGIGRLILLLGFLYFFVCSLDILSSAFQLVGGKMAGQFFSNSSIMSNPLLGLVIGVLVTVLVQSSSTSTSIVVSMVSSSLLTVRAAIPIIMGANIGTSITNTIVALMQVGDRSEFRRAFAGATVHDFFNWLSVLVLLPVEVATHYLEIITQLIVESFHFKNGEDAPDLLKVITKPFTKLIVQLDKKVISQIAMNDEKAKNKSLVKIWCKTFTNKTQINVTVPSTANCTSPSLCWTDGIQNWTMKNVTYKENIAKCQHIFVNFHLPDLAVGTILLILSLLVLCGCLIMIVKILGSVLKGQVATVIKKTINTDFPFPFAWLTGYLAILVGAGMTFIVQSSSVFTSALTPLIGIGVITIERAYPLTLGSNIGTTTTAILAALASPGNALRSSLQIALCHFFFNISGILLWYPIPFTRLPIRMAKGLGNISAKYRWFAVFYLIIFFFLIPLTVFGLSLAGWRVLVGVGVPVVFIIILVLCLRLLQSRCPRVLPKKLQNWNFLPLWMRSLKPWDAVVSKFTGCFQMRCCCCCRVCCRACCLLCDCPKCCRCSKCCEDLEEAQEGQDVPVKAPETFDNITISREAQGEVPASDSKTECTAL
# protocol.details: FACS, OVCAR3 cells
Report only the number, with the unit nM understood.

>  <binder>
xi11F6H8 hIgG1 (antibody, V domains shown, chimeric, hIgG1) VH: EVQLQQSGPELVKPGASVKISCKTSGFTFTEYTMHWVKQSHGKSLEWIGGINPNNGISSYNQNFKGKATLTVDKSSSTAYMELRSLTSEDSTVYYCARCRYYDTSYYDMDYWGQGTSVTVSS VL: DIQMTQTTSSLSASLGDRVTISCRASQDIRNFLNWYQQKPDGTVKLLIYYTSRLHSGVPSRFSGSGSGTDYSLTISNLEEEDIATYFCQQSNTLPWTFGGGTKLEIK

>  <numeric.value>
4.9

$$$$

[Q] Sample xi62C10B3D2 hIgG1 (antibody, V domains shown, chimeric, hIgG1) VH: QVHQQQSGPELVKPGASVRISCKASGYTFTSYYIHWVKQRPGQGLEWIGCIYPGNLFTKYNEKFKDKATLTADTSSTTAYMHLSSLTSEDSAVYFCARFLNWNAWYFDVWGAGTTVSVSS VL: DVLMTQTPLSLPVSLGDQASISCRSSQSIEHSNGNTNLEWYLQKPGQSPRLLIYKVSNRFSGVPDRFSGSGSGTDFTLKITGVEAEDLGVYYCFQGSHFPWTFGGGTKLEIK — what was its EC50?
[A] 408

[Q] Which EC50 reading was recorded for the binder xi71F7D4 hIgG1 (antibody, V domains shown, chimeric, hIgG1) VH: DVKLVESGGDLVKLGGSLKLSCAASGFTFSNYYMSWVRQTPEKRLELVAVINSNGGTTYYPDNMKGRFTISRDNAKNTLYLQTSSLKSEDTALYYCGRHEHYYGTNIAWFAYWGQGTLVTVSA VL: DIVMTQSHKFMSTSVGDRVSITCKASQDVTTAVAWYQQKPGQSPKLLIYWASTRHTGVPDRFTGSGSGTDHTLTISSVQAEDLALYYCQQHYSTPVTFGGGTKLEIK ?
[A] 7.86
